Method notes: qHTS profiling of the MIPE4 collection as inhibitors of Plasmodium falciparum (DD2) proliferation (Rep 2) (AID 743346)
Test parameters: P. falciparum Dd2 in erythrocytes, SYBR Green DNA, 72 h; at 28.5 µM unless noted
Each entry below carries its reported parasite growth, % of control (lower = inhibition).
Endpoint: parasite growth, % of control (lower = inhibition) (%)

{"Structure": "C[C@@H]1CC=CC=CC=CC=C[C@@H](O[C@@H]2O[C@H](C)[C@@H](O)[C@H](N)[C@H]2O)C[C@@H]2O[C@](O)(C[C@@H](O)C[C@@H]3O[C@@H]3C=CC(=O)O1)C[C@H](O)[C@@H]2C(=O)O", "Readout number": 59}
{"Structure": "C[C@@H](O)[C@H]1C(=O)N2C(C(=O)OCOC(=O)C(C)(C)C)=C(SC3CN(C4=NCCS4)C3)[C@H](C)[C@H]12", "Readout number": 107}
{"Structure": "CC(C)(F)C[C@H](N[C@@H](c1ccc(-c2ccc(S(C)(=O)=O)cc2)cc1)C(F)(F)F)C(=O)NC1(C#N)CC1", "Readout number": 61}
{"Structure": "Cc1[nH]c(C=C2C(=O)Nc3ccc(S(=O)(=O)N(C)c4cccc(Cl)c4)cc32)c(C)c1C(=O)N1CCN(C)CC1", "Readout number": 14.4}
{"Structure": "Fc1ccc(CNc2ncnc3ccc(F)cc23)cc1", "Readout number": 117}
{"Structure": "O=C1NC(=O)C(=Cc2ccc(-c3ccc(F)cc3O)o2)S1", "Readout number": 61.3}
{"Structure": "OC[C@H]1O[C@@H](O[C@H]2[C@@H](O)[C@@](O)(CO)O[C@@H]2CO)[C@H](O)[C@@H](O)[C@@H]1O", "Readout number": 79.8}
